Reference for the values: patent US20240076389A1

# testTarget: T1, recombinant human AXL extracellular domain, C-terminally His8-tagged (rhAXL-ECD) (human, UniProt P30530 26-451)
# T1 construct: Made in CHO cells; also called (rh)AXL-ECD His8; human AXL ECD
# T1 sequence: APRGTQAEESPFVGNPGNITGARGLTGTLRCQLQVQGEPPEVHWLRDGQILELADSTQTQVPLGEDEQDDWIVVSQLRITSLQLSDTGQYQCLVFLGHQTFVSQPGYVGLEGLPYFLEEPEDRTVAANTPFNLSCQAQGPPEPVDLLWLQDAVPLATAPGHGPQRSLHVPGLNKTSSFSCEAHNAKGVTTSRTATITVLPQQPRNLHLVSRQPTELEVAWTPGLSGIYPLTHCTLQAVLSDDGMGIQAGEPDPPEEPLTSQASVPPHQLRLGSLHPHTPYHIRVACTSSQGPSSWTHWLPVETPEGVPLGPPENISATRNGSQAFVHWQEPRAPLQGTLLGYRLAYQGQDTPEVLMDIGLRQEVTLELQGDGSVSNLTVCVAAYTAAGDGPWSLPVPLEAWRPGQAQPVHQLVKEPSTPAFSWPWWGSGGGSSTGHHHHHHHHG
# protocolSummary: SPR Biacore T200, mAb captured on anti-Fc, AXL ECD flowed, single-cycle kinetics
measuredAttribute: kon (M⁻¹ s⁻¹)
# output: bare number, implied unit M⁻¹ s⁻¹

Lookup: What does the data say about its kon? Entry: hFC-F107-8D12 (antibody, human IgG1, kappa, V domains shown, Chimeric mAb, human IgG1 / human kappa constant regions; also called mAb F107-8D12; chimeric F107-8D12) VH: QVQLQQPGAELVKPGASVQLSCKASGYTFISFWINWVKQRPGQGLEWMGNIFPGSSSTNYNEKFKSKATLTVDKSSSTAYMQLSSLTSEDSAVYFCARDYYGGSPDYWGQGTTLTVSS VL: DIVMSQSPSSLAVSAGERVTMSCKSSQSLLNTRTRKNYLAWYQQKPGQSPKLLIYWASTRESGVPDRFTGSGSGTDFTLTISSVQAEDLAVYYCKQSYNLWTFGGGTKLEIKR
Found: 2.7e+06
